Molecular target: T1, Recombinant in-house Human FcRn protein (human, UniProt P55899 24-297; P61769 21-119, limits assumed)
T1 construct: also called huFCRN; HuFcRn
T1 sequence (P55899 24-297 limits assumed, chain 1 of 2): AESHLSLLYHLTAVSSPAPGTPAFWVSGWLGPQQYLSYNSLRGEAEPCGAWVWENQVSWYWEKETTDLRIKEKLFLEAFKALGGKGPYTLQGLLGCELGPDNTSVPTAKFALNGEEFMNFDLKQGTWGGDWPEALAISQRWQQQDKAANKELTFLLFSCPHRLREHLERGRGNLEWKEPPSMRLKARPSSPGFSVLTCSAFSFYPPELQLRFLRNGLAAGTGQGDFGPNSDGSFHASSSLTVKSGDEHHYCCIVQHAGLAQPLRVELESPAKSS
T1 sequence (P61769 21-119 limits assumed, chain 2 of 2): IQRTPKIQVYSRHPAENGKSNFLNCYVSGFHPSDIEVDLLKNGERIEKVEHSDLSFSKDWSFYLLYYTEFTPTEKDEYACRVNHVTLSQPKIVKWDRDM
Test: competitive binding ELISA, pH 6.0; competitor Efgartigimod (Fc Fragment 1)

{"Binder": "Fc Fragment 13 (other, Human IgG1 Fc fragment; substitutions already in the entry) DKTHTCPPCPAPELLGGPSVFLFPPKPKDTLYITREPEVTCVVVDVSHEDPEVKFNWYVDGVEVHNAKTKPREEQYNSTYRVVSVLTVLHQDWLNGKEYKCKVSNKALPAPIEKTISKAKGQPREPQVYTLPPSRDELTKNQVSLTCLVKGFYPSDIAVEWESNGQPENNYKTTPPVLDSDGSFFLYSKLTVDKSRWQQGNVFSCSVMHEALRFHYTQKSLSLSPG", "IC50 / nM": 4.71}

Cited source: patent US20250152704A1
